Values from paper PMC12627007

target: HIV-1 recombinant integrase (rIN) (Human immunodeficiency virus type 1 group M subtype B, UniProt P04585); construct: HIV-1 recombinant integrase (rIN); made in house; assay: Integrase (rIN) enzyme assays: 3'-processing and strand transfer; type: biochemical; conditions: recombinant HIV-1 integrase; read-out: IC50 3'-Processing
pIC50: −log10 of the molar value.
measurementType: pIC50

The recorded pIC50 for entry O=c1c2ccccc2sn1NS(=O)(=O)c1ccccc1 [Compound 6] equals < 4.52

---

system: HIV-1 MDR (74V, 41L, 106A, 215Y); experiment: Inhibition of virus-induced cytopathogenicity in MT-4 cells, NRTI-resistant mutant MDR; type: cell-based; settings: Human immunodeficiency virus 1, MT4, read-out: EC50 MDR
Exercise: for every item that follows, state its recorded pEC50.
Answers are plain numbers, as −log10 of the molar value.

{"compound": "O=c1c2ccccc2sn1N(S(=O)(=O)c1ccc(Cl)cc1)S(=O)(=O)c1ccc(Cl)cc1", "pEC50": 4.19}

Batch request: pEC50 for each of the following compounds.
1. O=c1c2ccccc2sn1NS(=O)(=O)c1cc(Cl)cc(Cl)c1
2. O=c1c2ccccc2sn1NS(=O)(=O)c1ccc(F)cc1
3. O=c1c2ccccc2sn1N(S(=O)(=O)c1ccc(F)cc1)S(=O)(=O)c1ccc(F)cc1
4. O=c1c2ccccc2sn1NS(=O)(=O)c1ccc(Cl)cc1
5. O=c1c2ccccc2sn1N(S(=O)(=O)c1ccccc1)S(=O)(=O)c1ccccc1
6. O=c1c2ccccc2sn1NS(=O)(=O)c1ccc([N+](=O)[O-])cc1
7. COc1ccc(S(=O)(=O)Nn2sc3ccccc3c2=O)cc1

Response:
1. 4.89
2. 5.22
3. 4.60
4. 5.15
5. 4.72
6. 5.22
7. 5.22

Batch request: pEC50 for each of the following compounds.
1. CC(C)(C)NC(=O)[C@@H]1C[C@@H]2CCCC[C@@H]2CN1C[C@@H](O)[C@H](Cc1ccccc1)NC(=O)[C@H](CC(N)=O)NC(=O)c1ccc2ccccc2n1 [SAQ, saquinavir, reference compound]
2. O=c1c2cc(Cl)ccc2sn1NS(=O)(=O)c1ccccc1Cl
3. O=c1c2ccccc2sn1NS(=O)(=O)c1ccccc1

Response:
[7.70, 4.80, 5.40]

Batch request: pEC50 for each of the following compounds.
1. O=C1Nc2ccc(Cl)cc2[C@@](C#CC2CC2)(C(F)(F)F)O1 [EFV, efavirenz, reference compound]
2. O=c1c2ccccc2sn1NS(=O)(=O)c1ccc(Cl)c(Cl)c1

Response:
1. 8.40
2. 4.96

Batch request: pEC50 for each of the following compounds.
1. O=c1c2ccccc2sn1NS(=O)(=O)c1ccccc1F
2. Cc1ccc2sn(NS(=O)(=O)c3ccccc3Cl)c(=O)c2c1

Response:
[5.30, 5.52]

---

Exercise: for every item that follows, state its recorded EC50.
system: HIV-1 AZTR (67N, 70R, 215F, 219Q); test: Inhibition of virus-induced cytopathogenicity in MT-4 cells, NRTI-resistant mutant AZTR; format: cell-based; conditions: Human immunodeficiency virus 1, MT4, read-out: EC50 AZTR
Answers are plain numbers, in µM.

Some entries whose results are on file:
{"compound": "O=c1c2ccc(Cl)cc2sn1NS(=O)(=O)c1ccccc1Cl", "unitTag": "µM", "EC50": 14}
{"compound": "O=c1c2ccccc2sn1NS(=O)(=O)c1cccc(Cl)c1", "unitTag": "µM", "EC50": 6}
{"compound": "O=c1c2ccccc2sn1NS(=O)(=O)c1ccc(Cl)c(Cl)c1", "unitTag": "µM", "EC50": 6}
{"compound": "O=c1c2ccccc2sn1NS(=O)(=O)c1ccccc1", "unitTag": "µM", "EC50": 6}
{"compound": "Cc1ccc2sn(NS(=O)(=O)c3ccccc3Cl)c(=O)c2c1", "unitTag": "µM", "EC50": 4}
{"compound": "O=c1c2ccccc2sn1NS(=O)(=O)c1ccc([N+](=O)[O-])cc1", "unitTag": "µM", "EC50": 7}
{"compound": "O=c1c2cc(Cl)ccc2sn1NS(=O)(=O)c1ccccc1Cl", "unitTag": "µM", "EC50": 12}
{"compound": "O=c1c2ccccc2sn1NS(=O)(=O)c1ccccc1F", "unitTag": "µM", "EC50": 6}

Batch request: EC50 for each of the following compounds.
1. CC(C)(C)NC(=O)[C@@H]1C[C@@H]2CCCC[C@@H]2CN1C[C@@H](O)[C@H](Cc1ccccc1)NC(=O)[C@H](CC(N)=O)NC(=O)c1ccc2ccccc2n1 [SAQ, saquinavir, reference compound]
2. O=c1c2ccccc2sn1NS(=O)(=O)c1cc(Cl)cc(Cl)c1
3. O=c1c2ccccc2sn1N(S(=O)(=O)c1ccc(Cl)cc1)S(=O)(=O)c1ccc(Cl)cc1
4. O=c1c2ccccc2sn1N(S(=O)(=O)c1ccccc1)S(=O)(=O)c1ccccc1
5. O=c1c2ccccc2sn1N(S(=O)(=O)c1ccc(F)cc1)S(=O)(=O)c1ccc(F)cc1

Response:
[0.01, 8, 71, 20, 22]

---

tested on: HIV-1 MDR (74V, 41L, 106A, 215Y); experiment: Inhibition of virus-induced cytopathogenicity in MT-4 cells, NRTI-resistant mutant MDR; type: cell-based; conditions: Human immunodeficiency virus 1, MT4, read-out: EC50 MDR
measurementType: EC50 (µM)
One number for each entry, in µM.

{"molecule": "Cc1cn([C@H]2C[C@H](N=[N+]=[N-])[C@@H](CO)O2)c(=O)[nH]c1=O [AZT, azidothymidine, reference compound]", "measurementType": "EC50", "unitTag": "µM", "readoutNumber": 0.2}
{"molecule": "O=c1c2ccc(Cl)cc2sn1NS(=O)(=O)c1ccccc1Cl", "measurementType": "EC50", "unitTag": "µM", "readoutNumber": 11}

Now look at this one.
The recorded EC50 for entry O=c1c2ccccc2sn1N(S(=O)(=O)c1ccc([N+](=O)[O-])cc1)S(=O)(=O)c1ccc([N+](=O)[O-])cc1 equals 25

---

tested on: HIV-1 AZTR (67N, 70R, 215F, 219Q); test: Inhibition of virus-induced cytopathogenicity in MT-4 cells, NRTI-resistant mutant AZTR; type: cell-based; conditions: Human immunodeficiency virus 1, MT4, read-out: EC50 AZTR
measurementType: pEC50
Numbers only, as −log10 of the molar value.

Batch request: pEC50 for each of the following compounds.
1. Cc1ccc(S(=O)(=O)N(n2sc3ccccc3c2=O)S(=O)(=O)c2ccc(C)cc2)cc1
2. O=c1c2ccccc2sn1NS(=O)(=O)c1ccccc1Cl
3. O=c1c2ccccc2sn1N(S(=O)(=O)c1ccc([N+](=O)[O-])cc1)S(=O)(=O)c1ccc([N+](=O)[O-])cc1
4. O=c1c2ccccc2sn1NS(=O)(=O)c1ccc(F)cc1
5. O=C1Nc2ccc(Cl)cc2[C@@](C#CC2CC2)(C(F)(F)F)O1 [EFV, efavirenz, reference compound]

Response:
1. 4.15
2. 5.05
3. 4.62
4. 5.30
5. 8.70

Batch request: pEC50 for each of the following compounds.
1. Cc1cn([C@H]2C[C@H](N=[N+]=[N-])[C@@H](CO)O2)c(=O)[nH]c1=O [AZT, azidothymidine, reference compound]
2. COc1ccc(S(=O)(=O)Nn2sc3ccccc3c2=O)cc1
3. O=c1c2ccccc2sn1NS(=O)(=O)c1ccc(Cl)cc1
4. Cc1ccc(S(=O)(=O)Nn2sc3ccccc3c2=O)cc1

Response:
6.70
5.30
5.15
5.10

---

assay: Cytotoxicity in mock-infected MT-4 cells (MTT method); format: cell-based; conditions: human
Label key: class 1 means CC50 at 4 days under 70 µM; class 0 means CC50 at 4 days of 70 µM or more.

Solved cases (8 shown):
{"structureString": "O=c1c2ccc(Cl)cc2sn1NS(=O)(=O)c1ccccc1Cl", "labelValue": "class 1"}
{"structureString": "O=c1c2cc(Cl)ccc2sn1NS(=O)(=O)c1ccccc1Cl", "labelValue": "class 0"}
{"structureString": "O=c1c2ccccc2sn1NS(=O)(=O)c1ccc([N+](=O)[O-])cc1", "labelValue": "class 0"}
{"structureString": "O=c1c2ccccc2sn1NS(=O)(=O)c1ccccc1F", "labelValue": "class 0"}
{"structureString": "O=c1c2ccccc2sn1NS(=O)(=O)c1ccc(F)cc1", "labelValue": "class 1"}
{"structureString": "O=c1c2ccccc2sn1NS(=O)(=O)c1cc(Cl)cc(Cl)c1", "labelValue": "class 0"}
{"structureString": "O=c1c2ccccc2sn1NS(=O)(=O)c1ccc(Cl)c(Cl)c1", "labelValue": "class 1"}
{"structureString": "O=c1c2ccccc2sn1NS(=O)(=O)c1cccc(Cl)c1", "labelValue": "class 1"}

Query: Regarding Cc1ccc(S(=O)(=O)Nn2sc3ccccc3c2=O)cc1 , kindly confirm whether its CC50 at 4 days is beneath 70 µM.
Response: class 1

Query: Regarding O=c1c2ccccc2sn1N(S(=O)(=O)c1ccc(Cl)cc1)S(=O)(=O)c1ccc(Cl)cc1 , kindly confirm whether its CC50 at 4 days is beneath 70 µM.
Response: class 0

Query: Regarding O=c1c2ccccc2sn1N(S(=O)(=O)c1ccccc1)S(=O)(=O)c1ccccc1 , kindly confirm whether its CC50 at 4 days is beneath 70 µM.
Response: class 0

Query: Regarding COc1ccc(S(=O)(=O)Nn2sc3ccccc3c2=O)cc1 , kindly confirm whether its CC50 at 4 days is beneath 70 µM.
Response: class 1

Query: Regarding O=c1c2ccccc2sn1NS(=O)(=O)c1ccccc1 , kindly confirm whether its CC50 at 4 days is beneath 70 µM.
Response: class 0
